assay: change in splice reporter luminescence, either direction, cell-based, HEK293, spliceosome inhibition project, primary screen (AID 1101); details: HEK293 splicing luciferase reporter, 24 h, higher = more signal, called active from +8 up or from −8 down;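 also: HEK293 cells carrying a splicing-competent luciferase reporter gene; test concentration not given here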
PROPERTY LABEL: z-score
No unit in the answer, please; the number alone is enough.

Request the reported z-score associated with CS(=O)(=O)CCOC(=O)C1=CC(CCCO)=CC(c2ccc(CN3CCCC3)cc2)N(Cc2sc3ccccc3c2Cl)C=C1C(=O)OCCS(C)(=O)=O (centres undefined)
0.576

Give the measured z-score of COc1ccc(C#Cc2ccc3c(c2)[C@]2(C(=O)N3)[C@H](c3ccc(O)cc3)N3[C@H](c4ccccc4)[C@H](c4ccccc4)OC(=O)[C@H]3[C@@H]2C(=O)Nc2nc3ccccc3s2)cc1 .
-0.793

Can you share its z-score? I mean this compound: COCC(=C=CC[C@H](O)c1ccccc1OCCO)C[C@H](O)c1ccccn1
0.0209

May I ask what z-score has been recorded for COC(=O)C1=CC(CCCO)=CC(c2ccc(CN3CCCC3)cc2)N(Cc2cccc(OC(F)(F)F)c2)C=C1C(=O)OC (centres undefined) ?
-0.656

* * *

biological target: Neurogenic locus notch homolog protein 3 (Homo sapiens) (UniProt Q9UM47); assay: small molecules binding NOTCH3 protein – biochemical, 635/667 nm fluorescence, primary screen (AID 1096); conditions: small-molecule microarray, 635 nm fluorescence, higher = more signal
Sequence (Q9UM47 whole entry, looked up): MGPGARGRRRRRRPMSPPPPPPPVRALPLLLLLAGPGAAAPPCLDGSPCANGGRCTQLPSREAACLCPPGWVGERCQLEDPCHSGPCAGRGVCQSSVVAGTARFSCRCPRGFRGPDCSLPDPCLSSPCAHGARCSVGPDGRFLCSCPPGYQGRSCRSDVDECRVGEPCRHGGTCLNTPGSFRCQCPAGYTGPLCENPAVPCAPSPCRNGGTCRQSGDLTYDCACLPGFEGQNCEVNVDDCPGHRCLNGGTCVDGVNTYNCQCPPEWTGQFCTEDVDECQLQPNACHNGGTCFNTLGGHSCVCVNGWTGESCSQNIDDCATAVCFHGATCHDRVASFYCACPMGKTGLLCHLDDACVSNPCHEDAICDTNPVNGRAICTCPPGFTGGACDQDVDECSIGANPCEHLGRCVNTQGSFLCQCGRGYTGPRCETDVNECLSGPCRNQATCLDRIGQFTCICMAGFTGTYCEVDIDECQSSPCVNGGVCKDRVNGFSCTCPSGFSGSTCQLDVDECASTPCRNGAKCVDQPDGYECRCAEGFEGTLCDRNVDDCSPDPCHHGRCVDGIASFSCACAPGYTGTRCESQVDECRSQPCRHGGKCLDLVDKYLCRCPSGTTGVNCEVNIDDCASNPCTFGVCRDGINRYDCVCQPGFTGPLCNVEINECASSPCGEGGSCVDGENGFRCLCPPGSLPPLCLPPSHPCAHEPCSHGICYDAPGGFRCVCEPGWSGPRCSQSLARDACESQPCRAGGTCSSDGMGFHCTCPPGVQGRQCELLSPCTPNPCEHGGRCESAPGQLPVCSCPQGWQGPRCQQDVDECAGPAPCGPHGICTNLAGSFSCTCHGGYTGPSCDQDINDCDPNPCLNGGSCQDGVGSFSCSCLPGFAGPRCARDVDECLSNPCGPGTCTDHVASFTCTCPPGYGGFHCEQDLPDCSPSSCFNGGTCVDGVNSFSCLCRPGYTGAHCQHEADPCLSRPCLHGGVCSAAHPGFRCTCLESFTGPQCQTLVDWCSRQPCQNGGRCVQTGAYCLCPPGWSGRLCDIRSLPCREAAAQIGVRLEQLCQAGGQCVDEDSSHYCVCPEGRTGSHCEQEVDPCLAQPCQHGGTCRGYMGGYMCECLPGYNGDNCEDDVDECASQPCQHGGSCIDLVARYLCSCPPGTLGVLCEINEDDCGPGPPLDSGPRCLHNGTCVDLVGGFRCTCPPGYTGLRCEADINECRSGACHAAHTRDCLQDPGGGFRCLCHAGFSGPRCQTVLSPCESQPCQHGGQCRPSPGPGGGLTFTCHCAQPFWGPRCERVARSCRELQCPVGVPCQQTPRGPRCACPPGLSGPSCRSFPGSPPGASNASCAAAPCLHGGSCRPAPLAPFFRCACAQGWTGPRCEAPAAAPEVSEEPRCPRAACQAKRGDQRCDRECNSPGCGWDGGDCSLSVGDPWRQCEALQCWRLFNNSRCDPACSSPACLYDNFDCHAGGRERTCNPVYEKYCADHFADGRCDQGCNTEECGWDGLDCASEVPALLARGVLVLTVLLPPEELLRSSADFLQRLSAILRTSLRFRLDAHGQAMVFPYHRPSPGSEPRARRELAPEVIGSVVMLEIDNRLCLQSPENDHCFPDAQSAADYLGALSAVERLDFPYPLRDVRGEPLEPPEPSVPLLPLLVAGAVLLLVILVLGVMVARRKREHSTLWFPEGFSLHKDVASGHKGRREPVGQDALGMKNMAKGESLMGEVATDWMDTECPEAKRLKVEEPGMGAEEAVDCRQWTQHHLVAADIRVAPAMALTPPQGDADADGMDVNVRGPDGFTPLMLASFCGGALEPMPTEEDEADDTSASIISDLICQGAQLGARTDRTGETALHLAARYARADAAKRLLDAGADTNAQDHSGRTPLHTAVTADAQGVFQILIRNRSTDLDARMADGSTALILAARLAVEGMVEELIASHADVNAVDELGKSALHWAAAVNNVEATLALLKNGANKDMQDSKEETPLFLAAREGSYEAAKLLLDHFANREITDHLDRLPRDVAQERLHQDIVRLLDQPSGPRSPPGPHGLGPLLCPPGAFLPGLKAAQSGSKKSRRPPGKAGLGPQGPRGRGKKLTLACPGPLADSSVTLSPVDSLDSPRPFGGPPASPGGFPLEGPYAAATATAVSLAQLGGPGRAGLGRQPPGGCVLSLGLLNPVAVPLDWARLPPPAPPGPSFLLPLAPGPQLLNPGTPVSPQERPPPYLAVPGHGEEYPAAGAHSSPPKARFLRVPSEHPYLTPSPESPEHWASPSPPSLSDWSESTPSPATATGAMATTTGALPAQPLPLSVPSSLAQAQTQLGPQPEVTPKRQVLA
Assignment: determine reported composite z-score for the given compounds.

What value of composite z-score has been reported for the following compound? CN(C)CCCCCCNC(=O)[C@@H]1C[C@@H]2C(=O)N3CCC[C@H]3C(=O)N2[C@@H]1c1cccc(OCCO)c1
1.06

Tell me the measured composite z-score of COCCOC(=O)N1C(=O)[C@@]2(c3cc(C#CCNC(N)=O)ccc31)[C@H](C(N)=O)[C@H]1C(=O)O[C@H](c3ccccc3)[C@H](c3ccccc3)N1[C@@H]2c1ccccc1OCCO , please.
1.08

What does the data say about its composite z-score? Entry: COCCOC(=O)N1C(=O)[C@@]2(c3cc(C#CC4=CCCCC4)ccc31)[C@H](C(=O)Nc1nc3ccccc3s1)[C@H]1C(=O)O[C@H](c3ccccc3)[C@H](c3ccccc3)N1[C@@H]2c1ccc(O)cc1
1.07

I have this compound here, COCC(=C=CC[C@H](O)c1ccc(CO)o1)CCO , and I need its recorded composite z-score.
1.12

Using the record for [N-]=[N+]=Nc1ccccc1C[C@@]1(C(=O)N2CCOCC2)N=C(c2ccc(OCCCO)cc2)O[C@@H]1c1ccccc1 , report its composite z-score.
1.11

Given the entry CN1C2C=C(CCCO)C(C3C(=O)N(C(N)=O)C(=O)C32)C1C1CC1 (stereo not given) , report its measured composite z-score.
-0.523

# query: composite z-score of entry CC(=O)NCCCC[C@@H]1NC(=O)[C@@H]2C[C@H](C(=O)NCCCCCN)[C@H](c3cccc(OCCO)c3)N2C1=O
1.09

// query composite z-score value for entry Cc1ccc(F)cc1S(=O)(=O)N[C@@H]1CCN(Cc2ccc(Br)cc2)C1
0.895

Looking for the measured composite z-score of CC(C)N1C(=O)c2ccccc2[C@@H](C(=O)NCCN2CCOCC2)[C@@H]1c1ccc(CO)cc1 , can you help?
-0.616

Look up composite z-score for this compound: N[C@@H](Cc1ccccc1)C(=O)NCc1cn(Cc2ccccc2)nn1
-0.005

Fill in: composite z-score of CCCCCN1CC=CC23O[C@@H]4/C=C\CCCOC(=O)C4[C@H]2C(=O)N(C(C)CO)[C@@H]3C1=O (stereo not given in full) is ___
-0.365

Consider the compound shown here: O=C1OCCC=C[C@H]2OC34C=CCN(Cn5nnc6ccccc65)C(=O)[C@H]3N(CCCO)C(=O)[C@@H]4C12 (stereo not given in full) What is its recorded composite z-score?
-0.99

Value lookup for composite z-score; key = C=CCC(OC(C)=O)[C@@H]1[C@@H](N(Cc2ccc(-c3cccc(C(F)(F)F)c3)o2)C(=O)Cc2ccc(OC)cc2)c2cc(OCCCO)ccc2N1C(=O)c1ccc(-c2ccccc2)cc1 (stereo not given in full)
-0.449

May I ask what composite z-score has been recorded for [N-]=[N+]=NCc1ccccc1C[C@@]1(C(N)=O)N=C(c2ccc(OCCCO)cc2)O[C@@H]1c1ccccc1 ?
-0.15

Consider the compound OCCCC1=CC(c2ccc(CN3CCCC3)cc2)N(Cc2cc3c(cc2Br)OCO3)CC1 (stereo not given) and give its measured composite z-score.
-0.102

// composite z-score lookup, key: COCCOC(=O)N1C(=O)[C@@]2(c3cc(C#CC4=CCCCC4)ccc31)[C@H](c1ccccc1OCCO)N1[C@H](c3ccccc3)[C@H](c3ccccc3)OC(=O)[C@H]1[C@@H]2C(=O)N1CCN(c2ncccn2)CC1
1.12

Which composite z-score value belongs to CCCCCCc1nc(Cc2cc(OC)c(OC)c(OC)c2)cc2c1[Si](C(C)C)(C(C)C)OC2 ?
-0.0693

Requested field: composite z-score. Item: CC(C)C[C@@H]1NC(=O)[C@@H]2C[C@H](C(=O)NCCCCCCN)[C@H](c3cccc(OCCO)c3)N2C1=O
1.12

Look at this compound and give its reported composite z-score. COC(=O)[C@]1(CCS(=O)(=O)c2ccccc2)N=C(c2ccc(OCCCO)cc2)O[C@@H]1c1ccccc1N=[N+]=[N-]
1.04

Quick one: composite z-score for CC(C)C(CO)N1C(=O)[C@@H]2[C@H]3C(=O)OCC=C[C@H]3OC23C=CCN(c2ccc(Cl)cc2)C(=O)[C@@H]13 (stereo not given in full) ?
-0.271

Using the record for COC(=O)[C@@]1(Cc2ccc(F)cc2)[C@H]2c3cc(C(=O)N(C)C)n(CCc4ccc(OC)c(Br)c4)c3C[C@H]2CN1C(=O)c1ccccc1 , report its composite z-score.
0.346

Given the compound O=C1C2C=CC(C(O)c3cccc(O)c3)N(Nc3ccc([N+](=O)[O-])cc3)C2C(=O)N1c1ccccc1 (stereo not given) , what is its reported composite z-score?
0.715

Returns the measured composite z-score for the input compound. Input: CN(C)C(=O)[C@]1(CCC(=O)OC(C)(C)C)N=C(c2ccc(OCCCO)cc2)O[C@@H]1c1ccccc1CN=[N+]=[N-]
-0.162

Name the reported composite z-score value associated with the compound O=C(c1ccccc1)N1C(=O)[C@]2(Cc3ccccc31)N=C(c1ccc(OCCCO)cc1)O[C@@H]2c1ccccc1
1.07

What does the data say about its composite z-score? Entry: NCCCCCCNC(=O)[C@@H]1C[C@@H]2C(=O)N[C@@H](CCCCN)C(=O)N2[C@@H]1c1ccc(O)cc1
0.549

Which composite z-score value belongs to CCCCNC(=O)c1ccc(C#CC(C)(C)C)c(OC(C)=O)c1 ?
1.1

What does the data say about its composite z-score? Entry: C[N+](C)(C)CCCC[C@@H]1NC(=O)[C@@H]2C[C@H](C(=O)NCCCCCCN)[C@H](c3cccc(OCCO)c3)N2C1=O
0.748

I'd like to know its composite z-score. The compound in question is CCOC(=O)C[C@H]1[C@H](OC(=O)Cc2ccc3c(c2)OCO3)[C@@H](NC(=O)C2CCCCC2)c2cc(OCCCO)ccc2N1C(=O)c1ccccc1
0.255

Looking for the measured composite z-score of COC(=O)[C@@]1(Cc2ccccc2)[C@H]2c3cc(C(=O)N(C)C)n(Cc4ccc(C)o4)c3C[C@H]2CN1C(=O)c1ccccc1 , can you help?
1.13

Entry CC(C)NC(=O)[C@@]1(C)c2ccccc2C(=O)N(Cc2ccc(OC(F)(F)F)cc2)[C@H]1c1ccc(CO)cc1 has what composite z-score?
-0.284
